Values were extracted from patent US10710978B2.

biological target: UniProtKB Q7KZI7; test: KiNativ assay; format: binding; settings: H929 live cell, read-out: inhibition (10 μM)
Sequence (Q7KZI7 whole entry): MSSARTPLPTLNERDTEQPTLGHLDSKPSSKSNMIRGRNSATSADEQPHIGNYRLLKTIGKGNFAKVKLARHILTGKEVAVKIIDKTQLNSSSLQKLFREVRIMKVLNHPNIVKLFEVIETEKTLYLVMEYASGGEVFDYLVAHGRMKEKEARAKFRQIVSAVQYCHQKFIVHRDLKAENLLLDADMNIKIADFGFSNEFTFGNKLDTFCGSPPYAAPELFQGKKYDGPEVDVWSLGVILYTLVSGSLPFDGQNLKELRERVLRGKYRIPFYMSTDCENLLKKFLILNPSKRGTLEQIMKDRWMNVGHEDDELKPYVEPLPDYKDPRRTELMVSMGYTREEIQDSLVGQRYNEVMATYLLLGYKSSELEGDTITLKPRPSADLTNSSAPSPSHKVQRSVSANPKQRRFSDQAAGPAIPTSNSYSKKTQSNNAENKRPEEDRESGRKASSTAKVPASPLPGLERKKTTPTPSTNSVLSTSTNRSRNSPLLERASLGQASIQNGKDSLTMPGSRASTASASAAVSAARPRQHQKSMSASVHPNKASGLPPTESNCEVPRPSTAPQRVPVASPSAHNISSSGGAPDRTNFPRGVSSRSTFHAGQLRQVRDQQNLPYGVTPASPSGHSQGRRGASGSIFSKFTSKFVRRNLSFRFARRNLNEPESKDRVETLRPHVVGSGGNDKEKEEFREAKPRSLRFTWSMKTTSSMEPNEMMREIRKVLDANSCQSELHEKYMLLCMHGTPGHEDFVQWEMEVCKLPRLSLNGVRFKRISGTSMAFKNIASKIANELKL
endpoint.label: inhibition at 10 µM

COc1cc(NS(=O)(=O)C2CC2)ccc1-c1cnc(N)c(-c2ccc3c(c2)CCNC3=O)c1 ... -8.6%

Would you kindly share the measured inhibition at 10 µM for Nc1ncc(-c2ccc(NS(=O)(=O)C3CC3)cc2F)cc1-c1ccc2c(c1)CCNC2=O ?
24.6%

# iterate: Nc1ncc(-c2ccc(NS(=O)(=O)C3CC3)cc2OC2CCCCC2)cc1-c1ccc2c(c1)CCNC2=O
-45.1%

# iterate: CN(C1CC1)S(=O)(=O)c1ccc(-c2cnc(N)c(-c3ccc4c(c3)CCNC4=O)c2)c(F)c1
4.6%

# iterate: Nc1ncc(-c2cccc3ncsc23)cc1-c1ccc2c(c1)CCNC2=O
32.3%

# iterate: Nc1ncc(-c2cccc([N+](=O)[O-])c2F)cc1-c1ccc2c(c1)CCNC2=O
63.5%

###

target: RSK2 domain1 (Homo sapiens (Human), UniProt P51812); test: KiNativ assay; assay type: binding; settings: H929 live cell, read-out: inhibition (10 μM)
Sequence (P51812 whole entry, the tested form may be a part): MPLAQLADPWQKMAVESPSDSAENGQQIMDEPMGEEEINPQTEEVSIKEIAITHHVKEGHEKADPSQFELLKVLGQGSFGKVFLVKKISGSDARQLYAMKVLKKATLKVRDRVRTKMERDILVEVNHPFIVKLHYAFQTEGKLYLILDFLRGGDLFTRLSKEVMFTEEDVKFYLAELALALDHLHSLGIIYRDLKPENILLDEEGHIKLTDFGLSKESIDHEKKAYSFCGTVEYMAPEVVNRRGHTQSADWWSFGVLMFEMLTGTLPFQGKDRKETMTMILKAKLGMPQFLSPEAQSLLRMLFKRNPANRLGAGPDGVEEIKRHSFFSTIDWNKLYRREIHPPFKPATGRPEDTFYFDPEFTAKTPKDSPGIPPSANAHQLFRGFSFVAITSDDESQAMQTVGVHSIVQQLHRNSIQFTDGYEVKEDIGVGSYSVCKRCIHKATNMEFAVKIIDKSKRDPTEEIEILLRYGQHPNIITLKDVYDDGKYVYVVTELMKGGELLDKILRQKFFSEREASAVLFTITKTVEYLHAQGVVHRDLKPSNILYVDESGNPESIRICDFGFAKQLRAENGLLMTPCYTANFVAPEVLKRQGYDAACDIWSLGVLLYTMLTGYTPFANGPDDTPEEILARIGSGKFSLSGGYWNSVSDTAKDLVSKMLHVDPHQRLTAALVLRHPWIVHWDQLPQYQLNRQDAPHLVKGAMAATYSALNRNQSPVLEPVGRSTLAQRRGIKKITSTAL
endpoint.label: inhibition at 10 µM (%)
Express the result in % but write the number alone.

Nc1ncc(-c2ccc(NS(=O)(=O)C3CC3)cc2OC2CCCCC2)cc1-c1ccc2c(c1)CCNC2=O [Compound I-65] ... 79.4

Please provide the recorded inhibition at 10 µM for Nc1ncc(-c2cccc([N+](=O)[O-])c2F)cc1-c1ccc2c(c1)CCNC2=O [Compound I-9] , tested on RSK2 domain1 (Homo sapiens (Human), UniProt P51812).
69.9

# iterate: Nc1ncc(-c2cccc3ncsc23)cc1-c1ccc2c(c1)CCNC2=O [Compound I-13]
19.2

# iterate: Nc1ncc(-c2ccc(NS(=O)(=O)C3CC3)cc2F)cc1-c1ccc2c(c1)CCNC2=O [Compound I-51]
49.9

# iterate: CN(C1CC1)S(=O)(=O)c1ccc(-c2cnc(N)c(-c3ccc4c(c3)CCNC4=O)c2)c(F)c1 [Compound I-28]
20.3

# iterate: COc1cc(NS(=O)(=O)C2CC2)ccc1-c1cnc(N)c(-c2ccc3c(c2)CCNC3=O)c1 [Compound I-50]
21

###

compounds and their reported inhibition at 10 µM
biological target: RSK2 domain2 (Homo sapiens (Human)); test: KiNativ assay; type: binding; details: H929 live cell, read-out: inhibition (10 μM)
Sequence (P51812 whole entry, the tested form may be a part): as the sequence (P51812 whole entry, the tested form may be a part) above
Express the result in % but write the number alone.

Please provide the recorded inhibition at 10 µM for Nc1ncc(-c2cccc3ncsc23)cc1-c1ccc2c(c1)CCNC2=O , tested on RSK2 domain2 (Homo sapiens (Human)).
3.8

# iterate: Nc1ncc(-c2ccc(NS(=O)(=O)C3CC3)cc2F)cc1-c1ccc2c(c1)CCNC2=O
9.9

# iterate: CN(C1CC1)S(=O)(=O)c1ccc(-c2cnc(N)c(-c3ccc4c(c3)CCNC4=O)c2)c(F)c1
-20

# iterate: Nc1ncc(-c2ccc(NS(=O)(=O)C3CC3)cc2OC2CCCCC2)cc1-c1ccc2c(c1)CCNC2=O
7.2

# iterate: Nc1ncc(-c2cccc([N+](=O)[O-])c2F)cc1-c1ccc2c(c1)CCNC2=O
-23.2

# iterate: COc1cc(NS(=O)(=O)C2CC2)ccc1-c1cnc(N)c(-c2ccc3c(c2)CCNC3=O)c1
-1.4

###

compounds and their reported inhibition at 10 µM
target: PIP5K3 (Homo sapiens (Human), UniProt Q9Y2I7); experiment: KiNativ assay; format: binding; details: H929 live cell, read-out: inhibition (10 μM)
Sequence (Q9Y2I7 whole entry): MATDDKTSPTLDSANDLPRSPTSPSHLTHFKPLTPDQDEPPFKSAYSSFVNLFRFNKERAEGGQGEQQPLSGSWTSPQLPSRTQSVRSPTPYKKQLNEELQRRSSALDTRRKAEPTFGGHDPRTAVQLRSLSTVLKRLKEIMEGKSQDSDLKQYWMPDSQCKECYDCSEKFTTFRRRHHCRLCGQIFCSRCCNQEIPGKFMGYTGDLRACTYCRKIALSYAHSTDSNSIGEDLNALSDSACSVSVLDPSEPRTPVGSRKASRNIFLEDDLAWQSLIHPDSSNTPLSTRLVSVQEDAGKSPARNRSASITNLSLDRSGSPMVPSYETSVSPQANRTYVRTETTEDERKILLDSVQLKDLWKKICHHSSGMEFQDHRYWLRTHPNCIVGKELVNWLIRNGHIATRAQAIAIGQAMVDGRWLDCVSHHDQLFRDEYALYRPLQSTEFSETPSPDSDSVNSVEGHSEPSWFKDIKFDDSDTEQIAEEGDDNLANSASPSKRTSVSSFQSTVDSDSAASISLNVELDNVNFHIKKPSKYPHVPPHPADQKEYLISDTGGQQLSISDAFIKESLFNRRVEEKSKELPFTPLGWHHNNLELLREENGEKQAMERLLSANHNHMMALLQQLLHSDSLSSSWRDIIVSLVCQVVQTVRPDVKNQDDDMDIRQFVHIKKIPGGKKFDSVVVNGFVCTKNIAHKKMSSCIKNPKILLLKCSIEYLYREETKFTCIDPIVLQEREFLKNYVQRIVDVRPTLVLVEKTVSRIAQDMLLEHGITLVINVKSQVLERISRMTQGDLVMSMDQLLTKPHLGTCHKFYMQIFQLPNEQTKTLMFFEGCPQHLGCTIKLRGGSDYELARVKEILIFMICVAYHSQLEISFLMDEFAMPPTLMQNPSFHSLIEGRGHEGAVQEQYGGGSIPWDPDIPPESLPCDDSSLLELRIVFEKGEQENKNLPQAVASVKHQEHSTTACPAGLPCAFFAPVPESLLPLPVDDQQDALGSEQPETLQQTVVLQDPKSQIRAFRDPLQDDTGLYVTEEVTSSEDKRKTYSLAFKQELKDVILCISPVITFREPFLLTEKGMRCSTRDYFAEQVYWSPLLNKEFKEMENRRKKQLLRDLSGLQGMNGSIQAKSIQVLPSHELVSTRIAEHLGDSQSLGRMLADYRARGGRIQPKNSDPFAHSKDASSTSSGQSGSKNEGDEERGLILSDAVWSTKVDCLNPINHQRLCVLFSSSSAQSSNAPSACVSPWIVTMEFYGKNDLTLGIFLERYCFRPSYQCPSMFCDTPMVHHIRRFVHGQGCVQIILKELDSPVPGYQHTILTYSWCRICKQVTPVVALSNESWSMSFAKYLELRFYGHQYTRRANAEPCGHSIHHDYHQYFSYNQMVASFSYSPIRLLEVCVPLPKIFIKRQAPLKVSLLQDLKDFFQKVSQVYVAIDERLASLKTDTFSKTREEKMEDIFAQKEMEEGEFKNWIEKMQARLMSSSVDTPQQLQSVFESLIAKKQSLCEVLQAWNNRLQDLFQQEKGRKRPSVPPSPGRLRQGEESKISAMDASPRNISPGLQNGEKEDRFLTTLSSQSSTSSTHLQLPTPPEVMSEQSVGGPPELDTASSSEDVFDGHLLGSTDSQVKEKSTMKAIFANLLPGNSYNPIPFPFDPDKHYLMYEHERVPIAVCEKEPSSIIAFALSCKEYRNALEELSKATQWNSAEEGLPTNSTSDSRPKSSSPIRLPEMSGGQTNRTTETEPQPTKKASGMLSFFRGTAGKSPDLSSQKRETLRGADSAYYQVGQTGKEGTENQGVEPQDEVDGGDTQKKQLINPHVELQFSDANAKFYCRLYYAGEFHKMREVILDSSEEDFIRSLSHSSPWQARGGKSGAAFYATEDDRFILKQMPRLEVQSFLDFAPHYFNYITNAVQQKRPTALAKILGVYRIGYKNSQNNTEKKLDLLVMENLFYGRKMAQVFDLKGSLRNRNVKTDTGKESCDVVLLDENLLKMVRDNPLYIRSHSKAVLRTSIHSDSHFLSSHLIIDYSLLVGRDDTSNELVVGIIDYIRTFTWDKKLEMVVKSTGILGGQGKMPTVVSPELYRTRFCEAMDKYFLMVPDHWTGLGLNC
Express the result in % but write the number alone.

COc1cc(NS(=O)(=O)C2CC2)ccc1-c1cnc(N)c(-c2ccc3c(c2)CCNC3=O)c1 ... 79.7
CN(C1CC1)S(=O)(=O)c1ccc(-c2cnc(N)c(-c3ccc4c(c3)CCNC4=O)c2)c(F)c1 ... 83.4
Nc1ncc(-c2ccc(NS(=O)(=O)C3CC3)cc2F)cc1-c1ccc2c(c1)CCNC2=O ... 84.7

Would you kindly share the measured inhibition at 10 µM for Nc1ncc(-c2cccc([N+](=O)[O-])c2F)cc1-c1ccc2c(c1)CCNC2=O ?
92

# iterate: Nc1ncc(-c2ccc(NS(=O)(=O)C3CC3)cc2OC2CCCCC2)cc1-c1ccc2c(c1)CCNC2=O
91.7

# iterate: Nc1ncc(-c2cccc3ncsc23)cc1-c1ccc2c(c1)CCNC2=O
92.5
